- Tested on: DLD1 NRF2-WT
- CONDITION DESCRIPTION: 72 h; CellTiter-Glo viability
PARAMETER: EC50 viability (nM)

[a] O=C(O)C(=O)O.[NH-][C@@H]1CCCC[C@H]1[NH-].[Pt+2]
[b] CCn1c(=O)c(-c2ccc(Cl)cc2Cl)cc2cnc(Nc3ccc(N4CCNCC4)c(F)c3)nc21
[c] CC(C)C[C@H](NC(=O)CNC(=O)c1cc(Cl)ccc1Cl)B(O)O
[d] COc1cc(C)c(/C=C/C(C)=C/C=C/C(C)=C/C(=O)O)c(C)c1C
Sort the list above on EC50 viability in ascending fashion. A ranking is expressed here by listing the labels in the requested order.
d, c, b, a
(d: 20.2 nM, c: 110 nM, b: 250 nM, a: 25300 nM)

[I] COCC[n+]1c2c(n(Cc3cnccn3)c1C)C(=O)c1ccccc1C2=O [Sepantronium bromide]
[II] CC[C@@]1(O)C(=O)OCc2c1cc1n(c2=O)Cc2cc3c(CN(C)C)c(O)ccc3nc2-1
# return whichever of I and II has the smaller EC50 viability Indicate your choice by writing its label.
I
(I: 6.8 nM, II: 1500 nM)

###

Measured drug sensitivity score of individual entries
- Tested on: DLD1 NRF2-WT
- MEASUREMENT PROTOCOL: drug sensitivity score (DSS) cytotoxicity (DSS score); higher = more toxic; extreme values may be limits of the assay
- CONDITION DESCRIPTION: 72 h; CellTox Green cytotoxicity
Please give the numeric answer without any surrounding text.

COMPOUND: O=c1[nH]c(=O)n([C@H]2C[C@H](O)[C@@H](CO)O2)cc1C(F)(F)F [Trifluridine]
drug sensitivity score: 0
//
COMPOUND: Cn1cc(CNCC2CCN(c3ncc(C(=O)NO)cn3)CC2)c2ccccc21 [Quisinostat]
drug sensitivity score: 5.1
//
COMPOUND: CN[C@@H]1C[C@H]2O[C@@](C)([C@@H]1OC)n1c3ccccc3c3c4c(c5c6ccccc6n2c5c31)C(=O)N[C@H]4O [UCN-01]
drug sensitivity score: 10.4

Could you now consider this next compound?
Entry C/C(=C\c1csc(C)n1)[C@@H]1C[C@@H]2O[C@]2(C)CCC[C@H](C)[C@H](O)[C@@H](C)C(=O)C(C)(C)[C@@H](O)CC(=O)N1 [Ixabepilone] , tested on DLD1 NRF2-WT, has a reported drug sensitivity score of 2.4

###

- Tested on: DLD1 NRF2-WT
- CONDITION DESCRIPTION: 72 h; CellTiter-Glo viability
PARAMETER: EC50 viability (nM)

[a] CCc1c2c(nc3ccc(O)cc13)-c1cc3c(c(=O)n1C2)COC(=O)[C@]3(O)CC
[b] CN(Cc1cnc2nc(N)nc(N)c2n1)c1ccc(C(=O)N[C@@H](CCC(=O)O)C(=O)O)cc1 [Methotrexate]
[c] O=C(NCc1ccncc1)C12CC3CC(C1)CC(c1ccc(Cl)cc1)(C3)C2
[d] Nc1nc(Cl)nc2c1ncn2[C@@H]1O[C@H](CO)[C@@H](O)[C@@H]1F
[e] Cc1nc(C(=O)NCC(=O)O)c(O)c2ccc(Oc3ccccc3)cc12
Rank order required: EC50 viability, descending. Ranked list of labels, please, in the requested order.
c, e, a, d, b
(c: 5140 nM, e: 1690 nM, a: 337 nM, d: 166 nM, b: 35.5 nM)

[P] Cc1ccc(C(=O)N(CCCN)[C@@H](c2oc3cc(Cl)ccc3c(=O)c2Cc2ccccc2)C(C)C)cc1
[Q] CC1(COc2ccc3c(c2)ncn3-c2ccc3cccc(N4CCC(N)CC4)c3n2)COC1
[R] CC(C)c1c(C(=O)Nc2ccccc2)c(-c2ccccc2)c(-c2ccc(F)cc2)n1CC[C@@H](O)C[C@@H](O)CC(=O)O
[S] CN[C@@H]1C[C@H]2O[C@@](C)([C@@H]1OC)n1c3ccccc3c3c4c(c5c6ccccc6n2c5c31)C(=O)N[C@H]4O
Falling order of EC50 viability, please. Kindly provide the labels arranged according to the requested ordering.
R, Q, S, P
(R: 3740 nM, Q: 1030 nM, S: 344 nM, P: 2.8 nM)

[A] COc1cc(NS(C)(=O)=O)ccc1Nc1c2ccccc2nc2ccccc12
[B] CCn1cc(-c2ccnc3[nH]c(-c4cccc(CN(C)C)c4)cc23)c(-c2ccc(NC(=O)N(C)C)cc2)n1
Task for the reader: decide whether A or B has the larger EC50 viability. Bench note: the answer is the label of the chosen record.
A
(A: 2400 nM, B: 172 nM)

###

Below, each entry is listed with its recorded drug sensitivity score.
- System: DLD1 NRF2-GOF
- MEASUREMENT PROTOCOL: drug sensitivity score (DSS) cytotoxicity (DSS score); higher = more toxic; extreme values may be limits of the assay
- CONDITION DESCRIPTION: 72 h; CellTox Green cytotoxicity
Lab note: jot down the number only; don't add units.

MOLECULE: O=C(O)c1ccc2c(c1)nc(Nc1cccc(Cl)c1)c1ccncc12
OBSERVED RESULT: 0

Value of drug sensitivity score reported for the molecule CONC(=O)c1ccccc1Nc1cc(Nc2cc(C)nn2C(C)C)ncc1Cl is 0

Entry Cc1ccc(NS(=O)(=O)c2cccc(C#N)c2)c2[nH]cc(C#N)c12 , drug sensitivity score reported as 0

For this molecule ( Nc1cc(F)ccc1NC(=O)/C=C/c1cnn(C/C=C/c2ccccc2)c1 ), measured drug sensitivity score is 0

The reported drug sensitivity score of the molecule CNc1ncc2cc(-c3cc(NC(=O)NCCC(C)(C)C)c(F)cc3C)c(C)nc2n1 was 0

Value of measured drug sensitivity score for the entry CC(C)C[C@H](NC(=O)CNC(=O)c1cc(Cl)ccc1Cl)B(O)O : 6.8

Field drug sensitivity score (entry CC(C)c1cc(-c2n[nH]c(=O)n2-c2ccc3c(ccn3C)c2)c(O)cc1O ) reads 0

Entry under test: Cc1sc2c(c1C)C(c1ccc(Cl)cc1)=N[C@@H](CC(=O)Nc1ccc(OCCOCCOCCOCCNc3cccc4c3C(=O)N(C3CCC(=O)NC3=O)C4=O)cc1)c1nnc(C)n1-2 (stereo partly drawn) . Its drug sensitivity score was 1.1

###

- System: DLD1 NRF2-WT
- CONDITION DESCRIPTION: 72 h; CellTiter-Glo viability
PARAMETER: EC50 viability (µM)

Illustrative cases are given below, each with its answer.
COMPOUND: CNC(=O)c1ccccc1Sc1ccc2c(/C=C/c3ccccn3)n[nH]c2c1
EC50 viability, µM: 3.39
--
COMPOUND: COc1ccc(CCc2nc3cc(-c4c(C)noc4C)ccc3n2C[C@H](C)N2CCOCC2)cc1Cl
EC50 viability, µM: 9.91
--
COMPOUND: COc1cc([C@@H]2c3cc4c(cc3[C@@H](O[C@@H]3O[C@@H]5CO[C@@H](C)O[C@H]5[C@H](O)[C@H]3O)[C@H]3COC(=O)[C@H]23)OCO4)cc(OC)c1O [Etoposide]
EC50 viability, µM: 1.09
--
COMPOUND: COc1ccc(-c2ccc3ncc4c(c3c2)n(-c2ccc(N3CCNCC3)c(C(F)(F)F)c2)c(=O)n4C)cn1
EC50 viability, µM: 0.0264
--
COMPOUND: FC(F)c1nc2ccccc2n1-c1nc(N2CCOCC2)nc(N2CCOCC2)n1
EC50 viability, µM: 0.12
--
COMPOUND: CCS(=O)(=O)N1CCN(c2ccc(Nc3ncc(C(N)=O)c(NC4CC4)n3)cc2)CC1
EC50 viability, µM: 0.323
--
COMPOUND: O=C(Nc1cc(Cl)cc2c1[nH]c1cnccc12)c1cccnc1
EC50 viability, µM: 0.771
--
COMPOUND: O=C(O)c1ccc2c(c1)nc(Nc1cccc(Cl)c1)c1ccncc12
EC50 viability, µM: 3.6
--
COMPOUND: CN(C)CCOc1ccc(/C(=C(/CCCl)c2ccccc2)c2ccccc2)cc1
EC50 viability, µM: 4.21
--
COMPOUND: Cc1ccc(NC(=O)c2ccc(CN3CCN(C)CC3)cc2)cc1Nc1nccc(-c2cccnc2)n1
EC50 viability, µM: 4.5

[P] CCS(=O)(=O)Nc1ccc(Oc2ccc(F)cc2F)c(-c2cn(C)c(=O)c3[nH]ccc23)c1
[Q] C[C@]1(c2nc3c(C(N)=O)cccc3[nH]2)CCCN1
Name the one with the greater EC50 viability value, either P or Q as given. Response format: the label of the selected entry.
Q
(Q: 1.57 µM, P: 0.102 µM)

[A] Cc1cc(OCc2nnc(SC3CCCC3)n2-c2cccnc2)ccc1-c1ccc(S(C)(=O)=O)cc1
[B] Nc1nc2[nH]cnc2c(=S)[nH]1
Lab note: record which item had the higher EC50 viability, A or B . Select an item and report its label.
B
(B: 3.5 µM, A: 0.273 µM)

[a] O=C(O)c1ccc(-c2c[nH]c3ncc(-c4ccccc4)cc23)cc1C1CCCC1
[b] C#Cc1cccc(Nc2ncnc3cc(OCCOC)c(OCCOC)cc23)c1
Please tell me which of the two, a or b , has the higher reported EC50 viability value. Record your answer as the label of the chosen record.
b
(b: 0.321 µM, a: 0.0381 µM)

[1] COc1ccc(-c2ccc3c(N4CCOC[C@@H]4C)nc(N4CCOC[C@@H]4C)nc3n2)cc1CO
[2] COc1cccc2c1C(=O)c1c(O)c3c(c(O)c1C2=O)C[C@@](O)(C(C)=O)C[C@@H]3O[C@H]1C[C@H](N)[C@H](O)[C@H](C)O1
[3] CC(=O)OC[C@H]1O[C@@H]([S-])[C@H](OC(C)=O)[C@@H](OC(C)=O)[C@@H]1OC(C)=O.CCP(CC)CC.[Au+]
[4] NCCNc1ccc(NCCN)c2c1C(=O)c1ccncc1C2=O
List from greatest to least EC50 viability. Give the labels in the order specified.
4, 3, 2, 1
(4: 1.68 µM, 3: 0.622 µM, 2: 0.156 µM, 1: 0.0751 µM)

[I] Cc1ccc(Nc2nccc(N(C)c3ccc4c(C)n(C)nc4c3)n2)cc1S(N)(=O)=O
[II] Cc1sc2c(c1C)C(c1ccc(Cl)cc1)=N[C@@H](CC(=O)Nc1ccc(OCCOCCOCCOCCNc3cccc4c3C(=O)N(C3CCC(=O)NC3=O)C4=O)cc1)c1nnc(C)n1-2 (some centres undefined)
Problem: Given the entries I and II , determine which has the lower reported EC50 viability. Returns: label corresponding to the selected item.
II

Where do the numbers come from? From the supplement of paper PMC7600603.
